These data points were gathered from patent US20140120095A1.

Item-by-item account of pIC50
Target: T1, recombinant human DLL4 (human, UniProt Q9NR61 25-522)
T1 construct: also called rhDLL4; hDLL4
T1 sequence (Q9NR61 25-522): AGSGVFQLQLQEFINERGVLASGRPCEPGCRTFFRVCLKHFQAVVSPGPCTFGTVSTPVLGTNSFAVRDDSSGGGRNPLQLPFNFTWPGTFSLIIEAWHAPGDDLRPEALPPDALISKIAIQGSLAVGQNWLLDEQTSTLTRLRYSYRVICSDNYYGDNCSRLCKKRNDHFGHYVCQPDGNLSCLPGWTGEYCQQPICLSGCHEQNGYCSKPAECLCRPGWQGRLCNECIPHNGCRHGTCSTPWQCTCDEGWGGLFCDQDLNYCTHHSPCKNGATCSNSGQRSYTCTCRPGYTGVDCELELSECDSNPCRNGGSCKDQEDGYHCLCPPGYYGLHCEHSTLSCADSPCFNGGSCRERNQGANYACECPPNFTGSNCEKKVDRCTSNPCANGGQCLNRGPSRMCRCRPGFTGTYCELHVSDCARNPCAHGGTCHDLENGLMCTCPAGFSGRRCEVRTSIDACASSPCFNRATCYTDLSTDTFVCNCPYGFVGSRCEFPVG
Experiment: competition ELISA, biot-hDLL4 to coated hNotch1-Fc
pIC50: −log10 of the molar value.
measured-quantity: pIC50

{"columns": ["binder", "observed"],
 "data": [
  ["DLLBII55D12 (VHH) VHH: EVQLVESGGGLVQPGGSLRLSCAASGFTFDDYAIGWFRQAPGKEPEGISCISSSGGITYYADSVKGRFTISRDNAKNTVYLQMNSLKPEDTAVYYCATPGIAACRGIHYTGQGTQVTVSS", 7.91],
  ["DLLBII56H08 (VHH) VHH: EVQLVESGGGLVQPGGSLRLSCAASGFTFDDYAIGWFRQAPGKEPEEISCISSSGGITYYADSVKGRFTISRDNAKNTVYLQMNSLKPEDTAVYYCATPGIAACRGIHYTGQGTQVTVSS", 8.16],
  ["DLLBII115A05 (VHH, also called 115A5; DLLBII115A5) VHH: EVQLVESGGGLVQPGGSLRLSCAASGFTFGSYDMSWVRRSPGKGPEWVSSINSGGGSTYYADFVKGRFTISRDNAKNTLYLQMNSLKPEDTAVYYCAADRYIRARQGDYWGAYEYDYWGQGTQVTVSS", 8.04]
]}
